# System: SR leukemia
# test name: NCI tumour cell line growth inhibition, 48 h
recorded endpoint: GI50

mol: COc1cccc(-c2nn(-c3ccccc3)cc2-c2ccnc(NCCNC(=O)Nc3cccc(C(F)(F)F)c3)c2)c1
endpoint value: 1910 nM

mol: Cc1cc(Nc2nc(-c3cccnc3)nc3ccccc23)n[nH]1
endpoint value: 481 nM

mol: CCN(Cc1ccc(F)cc1)c1ccc(CO)c(C)c1
endpoint value: 20300 nM

For the record CC1=CC(=O)C(C(C)C)=CC1=Nc1cc(Br)c(O)c(Br)c1 , what value of GI50 is listed for SR leukemia?
3450 nM

---

# Tested on: T-47D breast
# test name: NCI tumour cell line growth inhibition, 48 h
recorded endpoint: TGI (µM)
Enter your answer as a number in µM; do not include the unit.

The following molecules have reported results that may help.
mol: CC1=CC(=O)C(C(C)C)=CC1=Nc1cc(Br)c(O)c(Br)c1
TGI / µM: 21.2

mol: C=C1C(=O)O[C@H]2[C@H]1CC/C(COC(=O)CCSCCC(=O)OC/C1=C/CC[C@@]3(C)O[C@H]3[C@H]3OC(=O)C(=C)[C@@H]3CC1)=C\CC[C@@]1(C)O[C@@H]21
TGI / µM: 3.21

Let us examine a further case.
Consider the molecule COc1ccc(S(=O)(=O)NC2=NCCN2C(=S)SN2CCn3c2nsc3=S)cc1 and give its measured TGI.
49.1

---

# System: UACC-62 melanoma
# test name: NCI tumour cell line growth inhibition, 48 h
We begin with a simple list: items and their reported TGI.

The following molecules have reported results that may help.
molecule: COc1ccc(/C=C2\CCS(=O)(=O)c3ccccc3C2=O)cc1OC
TGI: 76.6 µM

molecule: NC(=O)c1c([N+](=O)[O-])cc(C(F)(F)F)cc1[N+](=O)[O-]
TGI: > 100 µM

Let us examine a further case.
Consider the molecule C[N+](C)(C)CC1CCC/C1=N/O (stereo not drawn) and give its measured TGI.
> 100 µM

---

We begin with a simple list: items and their reported TGI.
# System: PC-3 prostate
# test name: NCI tumour cell line growth inhibition, 48 h

The following molecules have reported results that may help.
molecule: C=CCc1cc(-c2cc(CC=C)c(O)c(CN(CC)CC)c2)cc(CN(CC)CC)c1O
recorded endpoint: TGI
endpoint value: > 100 µM

molecule: Cc1cn(C2CC(N)C(C(=O)NCC(=O)O)O2)c(=O)[nH]c1=O (stereo not given)
recorded endpoint: TGI
endpoint value: > 100 µM

molecule: O=c1[nH]c(=O)n(C2CC(O)C(CO)O2)cc1NN=NCCCc1ccccc1 (stereo not given)
recorded endpoint: TGI
endpoint value: > 100 µM

molecule: Nc1ccccc1.[C-]#[O+].[C-]#[O+].[C-]#[O+].[C-]#[O+].[C-]#[O+].[Cr]
recorded endpoint: TGI
endpoint value: > 10 µM

Let us examine a further case.
Consider the molecule CN(C)c1ccc(C=C2C(=O)N(c3ccccc3)N(c3ccccc3)C2=O)cc1 and give its measured TGI.
> 100 µM

---

# System: SNB-75 CNS
# test name: NCI tumour cell line growth inhibition, 48 h
recorded endpoint: TGI

The following molecules have reported results that may help.
molecule: COC(=O)C1OC2(CCCC3CC32)O[C@H]1C(=O)OC (stereo not given in full)
TGI: > 100 µM

molecule: CNC(=S)N/N=C(\C(=N/NC(=S)NC)c1ccccn1)c1ccccn1
TGI: > 92.6 µM

molecule: NC(=O)c1ccccc1NC(=O)C(=O)Cc1nc2ccccc2[nH]c1=O
TGI: > 100 µM

molecule: O=C(CCCCCC(=O)N1CC(CCl)c2ccc([N+](=O)[O-])cc21)N1CC(CCl)c2ccc([N+](=O)[O-])cc21 (stereo not given)
TGI: > 100 µM

molecule: O=[N+]([O-])c1ccc(N/N=C/CC(O)(C(F)(F)F)C(F)(F)F)c([N+](=O)[O-])c1
TGI: > 10 µM

molecule: COC(OC)C1OCC(n2cc(F)c(=O)[nH]c2=O)C1O (stereo not given)
TGI: > 100 µM

molecule: c1ccc(CN[C@]23C4C5CC6C7C5C2C7[C@@](NCc2ccccc2)(C64)N3Cc2ccccc2)cc1 (stereo not given in full)
TGI: > 100 µM

molecule: O=C(CSc1ncn[nH]1)C[P+](c1ccccc1)(c1ccccc1)c1ccccc1
TGI: > 100 µM

molecule: CC1(C)C(CCO)CC1n1cc(I)c(=O)[nH]c1=O (stereo not given)
TGI: > 100 µM

Let us examine a further case.
Consider the molecule O=C1NC(=O)C(=Nc2cccc3c(=O)[nH][nH]c(=O)c23)C(c2nc3ccccc3s2)C1=O (stereo not given) and give its measured TGI.
> 100 µM

Data provenance: PubChem BioAssay (NCI)
